assay: recombinant UMI read abundance after kanamycin selection (control-corrected) (log10(CPM+1)); higher = more efficient recombination; extreme values may be limits of the assay; sequences stand for … in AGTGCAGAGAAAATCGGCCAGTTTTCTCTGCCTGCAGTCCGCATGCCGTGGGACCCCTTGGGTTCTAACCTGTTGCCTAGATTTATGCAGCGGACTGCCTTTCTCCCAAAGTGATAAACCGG…AGGTTGGTTTCACT; site = the 11-nt donor
Param threshold (0.5) applies to recombinant UMI read abundance (log10); output Met when value >= threshold, Not met when value < threshold.

{"ENTRY_SEQUENCE": "TATTTGTCATGGACCGGTTTTCCCGGTAATCCGTATTTGTG (site TATTTGTCTCA)", "CAT": "Met"}
{"ENTRY_SEQUENCE": "GTTCGACCATGGACCGGTTTTCCCGGTAATCCGTATTTGCA (site GTTCGAGCTTG)", "CAT": "Not met"}
{"ENTRY_SEQUENCE": "TCGGAATCATGGACCGGTTTTCCCGGTAATCCGTATTTGCG (site TAGGAATCTCG)", "CAT": "Met"}
{"ENTRY_SEQUENCE": "TCAGCGACATGGACCGGTTTTCCCGGTAATCCGTATTTGCG (site TCAGAGACTCG)", "CAT": "Not met"}
{"ENTRY_SEQUENCE": "TTAGTTGCATGGACCGGTTTTCCCGGTAATCCGTATTTGTG (site TTAGTTGCTCA)", "CAT": "Met"}

---

assay: recombinant barcode read abundance after kanamycin selection (control-corrected) (log10(CPM+1)); higher = more efficient recombination; sequences stand for … in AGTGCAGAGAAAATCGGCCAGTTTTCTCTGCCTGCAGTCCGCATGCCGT…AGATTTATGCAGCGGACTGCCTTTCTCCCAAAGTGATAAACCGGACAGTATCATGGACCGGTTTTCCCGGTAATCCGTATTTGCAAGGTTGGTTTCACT; site = the 11-nt target
I would appreciate it if you labelled entries MET when recombinant barcode read abundance (log10) is 0.07 or higher, otherwise NOT MET.

{"ENTRY_SEQUENCE": "TCTTGTTCTTGGGTTCTAACCTGTTGCCT (site TCTTGTTCTAG)", "CAT": "MET"}
{"ENTRY_SEQUENCE": "AAGCATCCTTGGGTTCTAACCTGTTGCCT (site ACGCATCCTAG)", "CAT": "MET"}
{"ENTRY_SEQUENCE": "AATGCTTCTTGGGTTCTAACCTGTTGCTT (site GATGCTTCTAA)", "CAT": "MET"}
{"ENTRY_SEQUENCE": "AGCTGATCTTGGGTTCTAACCTGTTGCCT (site TGCTGATCTAG)", "CAT": "NOT MET"}
{"ENTRY_SEQUENCE": "TAGTAGTCTTGGGTTCTAACCTGTTGCTT (site TAGTAGTCTAG)", "CAT": "MET"}
{"ENTRY_SEQUENCE": "CACGGGCCTTGGGTTCTAACCTGTTGCCT (site GACAGGCCTAG)", "CAT": "NOT MET"}
{"ENTRY_SEQUENCE": "GGTTCATCTTGGGTTCTAACCTGTTGCCA (site GGTTCATCTTG)", "CAT": "MET"}
{"ENTRY_SEQUENCE": "AATTGAGCTTGGGTTCTAACCTGTTGCCT (site AATTAAGCTAG)", "CAT": "MET"}
{"ENTRY_SEQUENCE": "CCGCTAGCTTGGGTTCTAACCTGTTGCCT (site CCGCTAGCTAG)", "CAT": "MET"}

Cited source: the supplement of paper PMC11208160
